molecular target: FASN (Gallus gallus); test: enzyme kinetics study; type: biochemical, chicken; details: Inhibition constant K is, substrate Mal-CoA
Sequence (P12276 2-2512 limits assumed): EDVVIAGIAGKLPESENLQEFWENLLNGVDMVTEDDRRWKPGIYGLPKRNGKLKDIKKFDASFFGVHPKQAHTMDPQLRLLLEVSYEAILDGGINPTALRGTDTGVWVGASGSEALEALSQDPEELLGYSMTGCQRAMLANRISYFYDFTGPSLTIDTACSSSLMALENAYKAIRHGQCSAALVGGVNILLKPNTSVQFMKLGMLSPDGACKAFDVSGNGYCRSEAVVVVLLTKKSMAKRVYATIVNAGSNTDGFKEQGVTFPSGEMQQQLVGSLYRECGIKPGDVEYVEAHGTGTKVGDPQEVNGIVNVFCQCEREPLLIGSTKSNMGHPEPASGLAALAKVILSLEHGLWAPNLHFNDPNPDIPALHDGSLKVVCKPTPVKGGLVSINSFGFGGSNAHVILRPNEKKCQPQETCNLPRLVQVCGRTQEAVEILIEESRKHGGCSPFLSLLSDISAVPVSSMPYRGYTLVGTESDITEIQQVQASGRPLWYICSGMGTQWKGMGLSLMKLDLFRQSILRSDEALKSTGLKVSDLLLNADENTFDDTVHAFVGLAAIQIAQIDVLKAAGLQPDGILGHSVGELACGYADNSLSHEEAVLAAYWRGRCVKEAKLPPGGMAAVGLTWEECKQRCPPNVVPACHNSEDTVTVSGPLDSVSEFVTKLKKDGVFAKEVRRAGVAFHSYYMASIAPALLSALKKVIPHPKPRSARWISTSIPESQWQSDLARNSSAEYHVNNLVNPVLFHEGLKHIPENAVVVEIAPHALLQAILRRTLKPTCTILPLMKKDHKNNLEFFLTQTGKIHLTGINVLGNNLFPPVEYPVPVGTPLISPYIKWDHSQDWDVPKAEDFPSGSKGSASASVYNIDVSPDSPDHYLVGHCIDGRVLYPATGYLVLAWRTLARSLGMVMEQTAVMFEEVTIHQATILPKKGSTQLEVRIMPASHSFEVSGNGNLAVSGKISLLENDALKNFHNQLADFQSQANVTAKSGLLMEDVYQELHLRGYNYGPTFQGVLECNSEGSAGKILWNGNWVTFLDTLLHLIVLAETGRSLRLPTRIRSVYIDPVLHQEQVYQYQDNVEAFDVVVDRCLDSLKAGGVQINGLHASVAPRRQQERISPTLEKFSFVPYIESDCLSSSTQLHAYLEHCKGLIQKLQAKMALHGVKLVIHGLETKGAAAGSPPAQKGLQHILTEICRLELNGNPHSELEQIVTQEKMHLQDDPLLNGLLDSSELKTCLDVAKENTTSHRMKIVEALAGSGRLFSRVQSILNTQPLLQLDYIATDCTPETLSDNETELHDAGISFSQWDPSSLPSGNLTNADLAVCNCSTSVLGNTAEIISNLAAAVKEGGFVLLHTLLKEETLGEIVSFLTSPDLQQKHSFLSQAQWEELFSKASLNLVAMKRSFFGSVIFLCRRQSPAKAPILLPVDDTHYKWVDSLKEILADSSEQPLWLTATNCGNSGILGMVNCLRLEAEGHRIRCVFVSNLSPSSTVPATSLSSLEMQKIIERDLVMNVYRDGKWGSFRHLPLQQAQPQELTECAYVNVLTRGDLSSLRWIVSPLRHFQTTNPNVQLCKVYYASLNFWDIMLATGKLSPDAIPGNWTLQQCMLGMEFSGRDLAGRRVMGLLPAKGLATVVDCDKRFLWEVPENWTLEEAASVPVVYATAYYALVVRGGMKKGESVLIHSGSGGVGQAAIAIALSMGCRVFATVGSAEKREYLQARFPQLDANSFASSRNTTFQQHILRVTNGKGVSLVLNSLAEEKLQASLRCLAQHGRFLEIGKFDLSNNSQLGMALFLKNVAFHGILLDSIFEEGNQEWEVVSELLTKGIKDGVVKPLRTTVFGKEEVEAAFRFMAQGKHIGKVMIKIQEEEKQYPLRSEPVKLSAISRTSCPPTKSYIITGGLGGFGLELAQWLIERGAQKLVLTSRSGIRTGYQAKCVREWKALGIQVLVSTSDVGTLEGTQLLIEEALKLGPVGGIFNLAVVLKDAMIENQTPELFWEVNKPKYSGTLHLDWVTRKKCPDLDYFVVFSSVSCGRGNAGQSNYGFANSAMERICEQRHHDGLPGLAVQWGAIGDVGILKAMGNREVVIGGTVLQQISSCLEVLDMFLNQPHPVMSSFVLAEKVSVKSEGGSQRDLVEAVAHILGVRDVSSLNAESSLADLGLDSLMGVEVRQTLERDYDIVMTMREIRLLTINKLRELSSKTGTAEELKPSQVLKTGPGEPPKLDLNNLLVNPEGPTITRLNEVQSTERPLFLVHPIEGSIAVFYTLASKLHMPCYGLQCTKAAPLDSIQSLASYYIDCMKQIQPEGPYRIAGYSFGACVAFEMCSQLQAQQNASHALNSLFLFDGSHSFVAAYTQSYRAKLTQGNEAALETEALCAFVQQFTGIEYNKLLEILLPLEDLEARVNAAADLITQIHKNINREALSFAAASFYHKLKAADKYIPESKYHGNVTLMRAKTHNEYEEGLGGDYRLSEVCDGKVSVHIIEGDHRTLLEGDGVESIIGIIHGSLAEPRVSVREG
Property Measured: Ki (µM)
# unit: µM | format: bare number

Ask: Supply measured Ki of O=C(CCc1ccc(O)cc1)c1c(O)cc(O)cc1O in your reply.
Reply: 5.69

Origin of the recorded values: paper PMC12423902
